Test system: Macaca fascicularis PRLR (mfPRLR.mmh; SEQ ID NO:403)
Sequence (as listed by the source): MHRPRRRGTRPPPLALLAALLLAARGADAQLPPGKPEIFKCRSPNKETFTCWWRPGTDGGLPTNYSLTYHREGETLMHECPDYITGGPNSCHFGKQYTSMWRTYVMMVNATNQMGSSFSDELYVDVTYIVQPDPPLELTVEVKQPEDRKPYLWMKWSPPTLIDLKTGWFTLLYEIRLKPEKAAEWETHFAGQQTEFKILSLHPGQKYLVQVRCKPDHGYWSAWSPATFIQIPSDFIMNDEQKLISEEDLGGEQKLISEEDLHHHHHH
Test: Surface plasmon resonance (Biacore T200), antibody-capture format
Assay type: binding
Conditions: 37° C., analyte mfPRLR.mmh
Readout Name: ka (M/s)
Report as a plain number; the unit M/s is understood.

Exam item: GET /values?readout=ka&item= H1H6975N: anti-PRLR antibody, human IgG1 Fc form of H2M6975N of Table 1; HCVR/LCVR SEQ ID NOs 370/378 (antibody, V domains shown, human IgG1 Fc) VH: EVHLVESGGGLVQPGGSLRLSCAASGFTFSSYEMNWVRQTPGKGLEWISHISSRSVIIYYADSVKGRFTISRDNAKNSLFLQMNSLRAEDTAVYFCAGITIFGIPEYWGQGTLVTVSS VL: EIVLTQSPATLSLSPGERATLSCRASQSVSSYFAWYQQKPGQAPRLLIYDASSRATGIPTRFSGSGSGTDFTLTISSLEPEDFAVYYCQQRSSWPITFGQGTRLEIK
Marked response: 140000

Value source: patent US10925971B2
